Assay: chemical genetic growth profiling, strain panel (AID 1159580);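 note: tested at 20 µM; growth read once vehicle control cultures reached saturation at 30 °C; 1 = growth at the plate median or of vehicle wells; lower values mean less growth of the strain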
Conditions: S. cerevisiae deletion strains, growth OD, locus YLR113W, strain HOG1, hits give low values
Among all 5,500 compounds or so, about 2,000 (36%) were called active. About 18% were inconclusive and are not listed. The list shows a part of the results.
property: normalized growth

// for each molecule below, give its normalized growth
1. S=C(N/N=C\c1ccc(Cl)cc1)N/N=C\c1ccc(Cl)cc1
2. O=[N+]([O-])c1cc([As](=O)(O)O)ccc1O
3. O=[N+]([O-])/C=C/c1ccsc1
4. Nc1ccc(C(=O)NCC(=O)O)cc1
5. FC(F)(F)c1cccc(NNC(=S)Nc2ccccc2)c1
6. Cc1c2c(=O)[nH]ncc2c(-c2ccccc2)n1-c1ccc([N+](=O)[O-])cc1
7. Cc1c(Nc2ncccc2C(=O)O)cccc1C(F)(F)F
8. O=C(NCCSCc1ccco1)Nc1cc(Cl)cc(Cl)c1

### Response
1: 0.66 (active); 2: 1.02 (inactive); 3: 0.133 (active); 4: 0.937 (inactive); 5: 0.764 (active); 6: 0.871 (inactive); 7: 0.991 (inactive); 8: 0.842 (active)

// for each molecule below, give its normalized growth
1. O=C(O)c1ccccc1Nc1cccc(OCc2ccc3ccccc3n2)c1
2. C1CCN2C[C@@H]3C[C@H](CN4CCCC[C@@H]34)[C@H]2C1
3. O=C1CSC(c2cccnc2)N1c1ccc(Cl)cc1Cl (stereo unspecified)

### Response
1.01 (inactive)
1.01 (inactive)
0.913 (inactive)

// for each molecule below, give its normalized growth
1. O=C(NCCSCc1cccc(C(F)(F)F)c1)c1ccc(Cl)cc1
2. O=C(NCCSCc1cccc(C(F)(F)F)c1)Nc1cccc(C(F)(F)F)c1
3. CC(=O)O[C@H]1C[C@@H](OC(C)=O)C(C)(C)C2C[C@@H](OC(C)=O)[C@@]3(C)C4=CC(=O)O[C@@H](c5ccoc5)[C@]4(C)CCC3[C@]21C (stereo partly specified)
4. Cc1cccc(Cl)c1/C=N\NC(N)=S
5. C=CCOc1ccc(/C=C/[N+](=O)[O-])cc1
6. CC(C)(C)c1ccc(C(O)CCCN2CCC(C(O)(c3ccccc3)c3ccccc3)CC2)cc1 (stereo unspecified)
7. CC(=O)c1sc(SCCS(=O)(=O)c2ccc(C)cc2)c2c1CC(C)(C)CC2=O

### Response
0.736 (active)
1.07 (inactive)
1.03 (inactive)
1.04 (inactive)
0.147 (active)
0.978 (inactive)
0.912 (inactive)

// for each molecule below, give its normalized growth
1. O=[N+]([O-])c1ccccc1CS(=O)(=O)c1nc2ccccc2s1
2. CNc1ccccc1C(=O)O
3. OC(CNCc1ccc(Cl)cc1)CO/N=C\C1=C(Cl)c2cc(Cl)ccc2OC1 (stereo unspecified)
4. CC(C)c1ccc(NC(=S)NC(=O)c2ccccc2)cc1
5. CSc1ccc(/C=C/[N+](=O)[O-])cc1
6. CC(=O)Nc1ccc([N+](=O)[O-])cc1[N+](=O)[O-]
7. COc1cc(C(=O)NCc2ccc(OCCN(C)C)cc2)cc(OC)c1OC
8. COc1ccccc1OCCNCC(O)COc1cccc2[nH]c3ccccc3c12 (stereo unspecified)

### Response
0.887 (inactive)
0.78 (active)
0.87 (inactive)
0.919 (inactive)
0.179 (active)
0.153 (active)
0.986 (inactive)
0.987 (inactive)

These measurements were taken from PubChem BioAssay AID1159580.
